The following compounds are shown together with reported IC50 values.
MEASUREMENT_TARGET: Serine/threonine-protein kinase greatwall (Human, UniProt Q96GX5)
Sequence (Q96GX5 whole entry): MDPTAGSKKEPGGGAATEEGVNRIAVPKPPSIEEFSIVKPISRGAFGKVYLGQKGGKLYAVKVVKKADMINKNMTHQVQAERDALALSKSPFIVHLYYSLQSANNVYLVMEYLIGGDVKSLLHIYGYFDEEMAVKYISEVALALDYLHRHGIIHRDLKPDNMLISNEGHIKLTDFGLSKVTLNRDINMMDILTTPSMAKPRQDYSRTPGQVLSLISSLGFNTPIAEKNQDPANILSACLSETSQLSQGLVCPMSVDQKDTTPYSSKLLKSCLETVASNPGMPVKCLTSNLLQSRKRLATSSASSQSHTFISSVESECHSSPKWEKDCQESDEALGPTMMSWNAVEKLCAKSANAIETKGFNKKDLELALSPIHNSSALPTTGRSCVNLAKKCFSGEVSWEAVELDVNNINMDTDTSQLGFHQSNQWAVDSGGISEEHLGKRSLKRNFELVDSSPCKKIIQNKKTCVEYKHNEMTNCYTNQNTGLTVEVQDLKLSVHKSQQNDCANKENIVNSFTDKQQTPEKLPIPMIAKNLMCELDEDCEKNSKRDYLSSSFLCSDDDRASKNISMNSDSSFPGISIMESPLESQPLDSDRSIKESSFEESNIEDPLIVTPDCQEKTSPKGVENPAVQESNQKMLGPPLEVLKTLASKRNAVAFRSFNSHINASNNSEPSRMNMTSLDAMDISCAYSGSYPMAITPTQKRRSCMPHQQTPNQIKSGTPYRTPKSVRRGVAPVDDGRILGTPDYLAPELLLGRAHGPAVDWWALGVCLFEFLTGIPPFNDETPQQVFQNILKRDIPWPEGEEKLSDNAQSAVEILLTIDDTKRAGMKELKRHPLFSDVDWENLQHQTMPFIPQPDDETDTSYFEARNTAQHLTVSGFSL
ASSAY_COMMENT: MASTL Activity Assay
Description: Wild-type human active MASTL (154 pM) was incubated in assay buffer (50 mM HEPES, 100 mM NaCl, 0.1 mM EGTA, 10 mM MgCl2, 0.01% Tween-20, 0.5 mM TCEP, pH 7.5) with biotin tagged 40-mer ENSA peptide (10 nM), test compound and ATP (18 μM) for 60 minutes at room temperature. Test compounds were assayed using a 12-point dose range consisting of a 0, DMSO control and 10 sequential doses consisting from 0.0005, 0.002, 0.005, 0.014, 0.04, 0.12, 0.37, 1.11, 3.33 and 10 μM. […]

// known answers, use as guide
| CPD_SMILES | RESULT |
| --- | --- |
| Cn1ncc2ccc(-c3nc(N)nc(NC(C)(C)c4c[nH]c(C(F)(F)F)n4)n3)cc21 | < 500 nM |
| Cn1ncc2cc(-c3nc(N)nc(NC(C)(C)c4ccn(C(F)F)n4)n3)ccc21 | < 500 nM |

Below: the item to evaluate.
Q: Name the recorded IC50 for Cc1ncc2ccc(-c3nc(N)nc(NCc4c[nH]c(C(F)(F)F)n4)n3)cn12 .
A: < 500 nM
